Data origin, for the record: patent US20250326794A1

Would you kindly list Lipid Concentration-induced 50% Peptide Binding, POPC Vesicle for each of these compounds?
Assay: Tryptophan fluorescent binding assay, POPC vesicles
Conditions: 50 μM peptide, PBS pH 7.4, lipid per peptide
A number alone suffices; assume L/P.

Prompt: I have this compound here, CC(C)C[C@H](NC(=O)CN)C(=O)N[C@@H](CC(C)C)C(=O)N[C@@H](CCC(=O)O)C(=O)N[C@@H](CC(C)C)C(=O)N[C@@H](CC(C)C)C(=O)N[C@@H](Cc1c[nH]cn1)C(=O)N[C@@H](CC(C)C)C(=O)N[C@@H](CC(C)C)C(=O)N[C@@H](CC(C)C)C(=O)N[C@@H](CCC(=O)O)C(=O)N[C@@H](C)C(=O)N[C@@H](C)C(=O)NCC(=O)N[C@@H](Cc1c[nH]c2ccccc12)C(N)=O [EHE] , and I need its recorded Lipid Concentration-induced 50% Peptide Binding, POPC Vesicle.
Response: 0.44

Prompt: Given the compound CC(C)C[C@H](NC(=O)CN)C(=O)N[C@@H](CC(C)C)C(=O)N[C@@H](CCCCN)C(=O)N[C@@H](CC(C)C)C(=O)N[C@@H](CC(C)C)C(=O)N[C@@H](CCCCN)C(=O)N[C@@H](CC(C)C)C(=O)N[C@@H](CC(C)C)C(=O)N[C@@H](CC(C)C)C(=O)N[C@@H](CCCCN)C(=O)N[C@@H](C)C(=O)N[C@@H](C)C(=O)NCC(=O)N[C@@H](Cc1c[nH]c2ccccc12)C(N)=O [KKK] , what is its reported Lipid Concentration-induced 50% Peptide Binding, POPC Vesicle?
Response: 1.25

Prompt: Endpoint output: Lipid Concentration-induced 50% Peptide Binding, POPC Vesicle of CC(C)C[C@H](NC(=O)CN)C(=O)N[C@@H](CC(C)C)C(=O)N[C@@H](CC(=O)O)C(=O)N[C@@H](CC(C)C)C(=O)N[C@@H](CC(C)C)C(=O)N[C@@H](Cc1c[nH]cn1)C(=O)N[C@@H](CC(C)C)C(=O)N[C@@H](CC(C)C)C(=O)N[C@@H](CC(C)C)C(=O)N[C@@H](Cc1c[nH]cn1)C(=O)N[C@@H](C)C(=O)N[C@@H](C)C(=O)NCC(=O)N[C@@H](Cc1c[nH]c2ccccc12)C(N)=O [DHH] . Value?
Response: 0.67

Prompt: Using the record for CC(C)C[C@H](NC(=O)CN)C(=O)N[C@@H](CC(C)C)C(=O)N[C@@H](CC(=O)O)C(=O)N[C@@H](CC(C)C)C(=O)N[C@@H](CC(C)C)C(=O)N[C@@H](CCCCN)C(=O)N[C@@H](CC(C)C)C(=O)N[C@@H](CC(C)C)C(=O)N[C@@H](CC(C)C)C(=O)N[C@@H](CCCCN)C(=O)N[C@@H](C)C(=O)N[C@@H](C)C(=O)NCC(=O)N[C@@H](Cc1c[nH]c2ccccc12)C(N)=O [DKK] , report its Lipid Concentration-induced 50% Peptide Binding, POPC Vesicle.
Response: 2.75

###

Experiment: Tryptophan fluorescent binding assay, 3POPC/1POPG vesicles
Conditions: 50 μM peptide, PBS pH 7.4, lipid per peptide
quantityKind: Lipid Concentration-induced 50% Peptide Binding, 3POPC/1POPG Vesicle (L/P)
Quick note: give the figure in L/P, leave out the unit.

Prompt: Dear colleague, I am looking for the recorded Lipid Concentration-induced 50% Peptide Binding, 3POPC/1POPG Vesicle of the following compound: CC(C)C[C@H](NC(=O)CN)C(=O)N[C@@H](CC(C)C)C(=O)N[C@@H](CCCCN)C(=O)N[C@@H](CC(C)C)C(=O)N[C@@H](CC(C)C)C(=O)N[C@@H](Cc1c[nH]cn1)C(=O)N[C@@H](CC(C)C)C(=O)N[C@@H](CC(C)C)C(=O)N[C@@H](CC(C)C)C(=O)N[C@@H](CCCCN)C(=O)N[C@@H](C)C(=O)N[C@@H](C)C(=O)NCC(=O)N[C@@H](Cc1c[nH]c2ccccc12)C(N)=O
Response: 0.38

Prompt: Would you mind telling me what Lipid Concentration-induced 50% Peptide Binding, 3POPC/1POPG Vesicle value was observed for CC(C)C[C@H](NC(=O)CN)C(=O)N[C@@H](CC(C)C)C(=O)N[C@@H](CC(=O)O)C(=O)N[C@@H](CC(C)C)C(=O)N[C@@H](CC(C)C)C(=O)N[C@@H](Cc1c[nH]cn1)C(=O)N[C@@H](CC(C)C)C(=O)N[C@@H](CC(C)C)C(=O)N[C@@H](CC(C)C)C(=O)N[C@@H](CCCCN)C(=O)N[C@@H](C)C(=O)N[C@@H](C)C(=O)NCC(=O)N[C@@H](Cc1c[nH]c2ccccc12)C(N)=O ?
Response: 0.38

Prompt: Query: Lipid Concentration-induced 50% Peptide Binding, 3POPC/1POPG Vesicle; subject: CC(C)C[C@H](NC(=O)CN)C(=O)N[C@@H](CC(C)C)C(=O)N[C@@H](CCC(=O)O)C(=O)N[C@@H](CC(C)C)C(=O)N[C@@H](CC(C)C)C(=O)N[C@@H](CCCCN)C(=O)N[C@@H](CC(C)C)C(=O)N[C@@H](CC(C)C)C(=O)N[C@@H](CC(C)C)C(=O)N[C@@H](Cc1c[nH]cn1)C(=O)N[C@@H](C)C(=O)N[C@@H](C)C(=O)NCC(=O)N[C@@H](Cc1c[nH]c2ccccc12)C(N)=O
Response: 0.19

Prompt: What value of Lipid Concentration-induced 50% Peptide Binding, 3POPC/1POPG Vesicle has been reported for the following compound? CC(C)C[C@H](NC(=O)CN)C(=O)N[C@@H](CC(C)C)C(=O)N[C@@H](Cc1c[nH]cn1)C(=O)N[C@@H](CC(C)C)C(=O)N[C@@H](CC(C)C)C(=O)N[C@@H](CCC(=O)O)C(=O)N[C@@H](CC(C)C)C(=O)N[C@@H](CC(C)C)C(=O)N[C@@H](CC(C)C)C(=O)N[C@@H](Cc1c[nH]cn1)C(=O)N[C@@H](C)C(=O)N[C@@H](C)C(=O)NCC(=O)N[C@@H](Cc1c[nH]c2ccccc12)C(N)=O
Response: 3.50

Prompt: Any idea what its Lipid Concentration-induced 50% Peptide Binding, 3POPC/1POPG Vesicle is? The compound is CC(C)C[C@H](NC(=O)CN)C(=O)N[C@@H](CC(C)C)C(=O)N[C@@H](CCC(=O)O)C(=O)N[C@@H](CC(C)C)C(=O)N[C@@H](CC(C)C)C(=O)N[C@@H](CCCCN)C(=O)N[C@@H](CC(C)C)C(=O)N[C@@H](CC(C)C)C(=O)N[C@@H](CC(C)C)C(=O)N[C@@H](CCC(=O)O)C(=O)N[C@@H](C)C(=O)N[C@@H](C)C(=O)NCC(=O)N[C@@H](Cc1c[nH]c2ccccc12)C(N)=O
Response: 1.63
